Tested on: Beet Armyworm (Spodoptera exigua) ("BAW"), second instar larvae
protocol_description: Bioassay on beet armyworm (BAW), 128-well diet tray assay
Format: in vivo
cond: Spodoptera exigua, read-out: BAW (Biological Results, rating)
parameter: pest or weed control at 50 µg/cm2

Entry `CN(C)c1ccc(OCCC(F)(F)F)c(N2C(=O)CS/C2=N\C(=O)Nc2ccc(-c3ncn(-c4ccc(OC(F)(F)F)cc4)n3)cc2F)c1` , pest or weed control at 50 µg/cm2 reported as 50 to 100%

Entry `Cc1ccc(C(F)(F)F)c(N2C(=O)CS/C2=N\C(=O)Nc2ccc(-c3ncn(-c4ccc(OC(F)(F)F)cc4)n3)cc2)c1` , pest or weed control at 50 µg/cm2 reported as 50 to 100%

Entry `CC(C)c1ccc(N(C)C)cc1N1C(=O)CS/C1=N\C(=O)Nc1ccc(-c2ncn(-c3ccc(OC(F)(F)F)cn3)n2)cc1Cl` , pest or weed control at 50 µg/cm2 reported as 50 to 100%

###

System: Beet Armyworm (Spodoptera exigua) ("BAW"), second instar larvae
protocol_description: Bioassay on beet armyworm (BAW), 128-well diet tray assay
Assay type: in vivo
cond: Table ABC, species BAW; C = not tested, D = no activity noticed
parameter: BAW rating

structure_as_smiles | result
CCOc1ccc(-n2cnc(-c3ccc(NC(=O)/N=C4\SCC(=O)N4c4cc(C)ccc4COCC(F)(F)F)c(F)c3)n2)cc1 | A (50-100)
Cc1ccc(COCC(F)F)c(N2C(=O)CS/C2=N\C(=O)Nc2ccc(-c3ncn(-c4ccc(C(F)(F)F)cn4)n3)cc2F)c1 | A (50-100)
Cc1ccc(COCC(Cl)Cl)c(N2C(=O)CS/C2=N\C(=O)Nc2ccc(-c3ncn(-c4ccc(OC(F)(F)F)cc4)n3)cc2F)c1 | A (50-100)

###

Test system: Cabbage Looper (Trichoplusia ni) ("CL"), second instar larvae
protocol_description: Bioassay on cabbage looper (CL), 128-well diet tray assay
Assay type: in vivo
cond: Trichoplusia ni, read-out: CL (Biological Results, rating)
parameter: pest or weed control at 50 µg/cm2

Entry `CCCc1ccc(C)cc1N1C(=O)CS/C1=N\C(=O)Nc1ccc(-c2ncn(-c3ccc(OC(F)(F)F)cc3)n2)cc1C#N` , pest or weed control at 50 µg/cm2 reported as 50 to 100%

Entry `CCCCc1ccc(C)cc1N1C(=O)CS/C1=N\C(=O)Nc1ccc(-c2ncn(-c3ccc(OC(F)(F)F)cc3)n2)cc1F` , pest or weed control at 50 µg/cm2 reported as 50 to 100%

Entry Cc1ccc(C(F)(F)F)c(N2C(=O)C(Cl)S/C2=N\C(=O)NCC(F)c2ccc(-c3ncn(-c4ccc(OC(F)(F)F)cc4)n3)cc2)c1 (stereo not drawn) , pest or weed control at 50 µg/cm2 reported as 50 to 100%

###

Test system: Beet Armyworm (Spodoptera exigua) ("BAW"), second instar larvae
protocol_description: Bioassay on beet armyworm (BAW), 128-well diet tray assay
Format: in vivo
cond: Table ABC, species BAW; C = not tested, D = no activity noticed
parameter: BAW rating

For orientation, consider the following solved cases.
molecule | BAW rating
Cc1ccc(COCC(C)(F)F)c(N2C(=O)CS/C2=N\C(=O)Nc2ccc(-c3ncn(-c4ccc(OC(F)(F)F)cc4)n3)cc2C)c1 [Compound J534] | A (50-100)
COc1cc(COCC(F)(F)F)c(N2C(=O)CS/C2=N\C(=O)Nc2ccc(-c3ncn(-c4ccc(OC(F)(F)F)cc4)n3)cc2F)cc1OC [Compound J560] | A (50-100)
CCCc1ccc(C)cc1N1C(=O)CS/C1=N\C(=O)Nc1ccc(-c2ncn(-c3ccc(N(C(=O)OC)C(F)(F)F)cc3)n2)cc1C [Compound J784] | A (50-100)
CCc1ccc(COCC(F)(F)F)c(N2C(=O)CS/C2=N\C(=O)Nc2ccc(-c3ncn(-c4ccc(OC(F)(F)F)cc4)n3)cc2C)c1 [Compound J641] | A (50-100)
Cc1cc(COCC(F)(F)F)c(N2C(=O)CS/C2=N\C(=O)Nc2ccc(-c3ncn(-c4cccc(OC(F)(F)F)c4)n3)cc2F)cc1C [Compound J738] | A (50-100)

Continue with the molecule presented below.
Entry Cc1ccc(COCC(Cl)(Cl)Cl)c(N2C(=O)CS/C2=N\C(=O)Nc2ccc(-c3ncn(-c4ccc(S(F)(F)(F)(F)F)cc4)n3)cc2F)c1 [Compound J453] , BAW rating reported as A (50-100)

###

Test system: Yellow Fever Mosquito "YFM" (Aedes aegypti), about 1 day-old larvae
protocol_description: Bioassay on yellow fever mosquito (YFM), 96-well plate larval assay
Assay type: in vivo
cond: Table ABC, species YFM; mortality scored after 3 days; C = not tested, D = no activity noticed
parameter: YFM rating

compound | result
Cc1ccc(COCC(F)(F)F)c(N2C(=O)CS/C2=N\C(=O)Nc2ccc(-c3ncn(-c4ccn(CC(F)(F)F)c(=O)c4)n3)cc2F)c1 [Compound J751] | A (80-100)
Cc1ccc(Cc2ccc(F)cc2)c(N2C(=O)CS/C2=N\C(=O)Nc2ccc(-c3ncn(-c4ccc(C(F)(F)F)cc4)n3)cc2F)c1 [Compound J673] | A (80-100)
Cc1cc(N2C(=O)CS/C2=N\C(=O)Nc2ccc(-c3ncn(-c4ccc(OC(F)(F)F)cc4)n3)cc2F)c(C)cc1F [Compound J714] | A (80-100)

###

Tested on: Cabbage Looper (Trichoplusia ni) ("CL"), second instar larvae
protocol_description: Bioassay on cabbage looper (CL), 128-well diet tray assay
Type: in vivo
cond: Trichoplusia ni, read-out: CL (Biological Results, rating)
Exercise: for every item that follows, state its recorded pest or weed control at 50 µg/cm2.

Entry `CCCCc1ccc(OC)cc1N1C(=O)CS/C1=N\C(=O)Nc1ccc(-c2ncn(-c3ccc(OC(F)(F)F)cc3)n2)cc1F` , pest or weed control at 50 µg/cm2 reported as 50 to 100%

Entry `Cc1ccc(OCCC(F)(F)F)c(N2C(=O)CS/C2=N\C(=O)Nc2ccc(-c3ncn(-c4ccc(C(F)(F)F)cc4)n3)cc2F)c1` , pest or weed control at 50 µg/cm2 reported as 50 to 100%

Entry `CN(C)c1ccc(OCC(F)(F)F)c(N2C(=O)CS/C2=N\C(=O)Nc2ccc(-c3ncn(-c4ccc(OC(F)(F)F)cn4)n3)cc2F)c1` , pest or weed control at 50 µg/cm2 reported as 50 to 100%

###

Test system: Beet Armyworm (Spodoptera exigua) ("BAW"), second instar larvae
protocol_description: Bioassay on beet armyworm (BAW), 128-well diet tray assay
Format: in vivo
cond: Spodoptera exigua, read-out: BAW (Biological Results, rating)
parameter: pest or weed control at 50 µg/cm2

Entry COC(C)c1ccc(C)cc1N1C(=O)CS/C1=N\C(=O)Nc1ccc(-c2ncn(-c3cccc(OC(F)(F)F)c3)n2)cc1F (stereo not drawn) , pest or weed control at 50 µg/cm2 reported as 50 to 100%

Entry `O=C(/N=C1\SCC(=O)N1c1ccccc1C(F)(F)F)Nc1ccc(-c2ncn(-c3ccc(OC(F)(F)F)cc3)n2)cc1` , pest or weed control at 50 µg/cm2 reported as 50 to 100%

Entry `Cc1ccc(C(F)(F)F)c(N2C(=O)CS/C2=N\C(=O)Nc2ccc(-c3ncn(-c4ccc(OC(F)(F)F)cn4)n3)cc2F)c1` , pest or weed control at 50 µg/cm2 reported as 50 to 100%

###

Tested on: Cabbage Looper (Trichoplusia ni) ("CL"), second instar larvae
protocol_description: Bioassay on cabbage looper (CL), 128-well diet tray assay
Type: in vivo
cond: Trichoplusia ni, read-out: CL (Biological Results, rating)
parameter: pest or weed control at 50 µg/cm2

Entry COC(C)c1ccc(C)cc1N1C(=O)CS/C1=N\C(=O)Nc1ccc(-c2ncn(-c3cccc(OC(F)(F)F)c3)n2)cc1F (stereo not drawn) , pest or weed control at 50 µg/cm2 reported as 50 to 100%

Entry COC(C)c1ccc(C)cc1N1C(=O)CS/C1=N\C(=O)Nc1ccc(-c2ncn(-c3ccc(C(F)(F)F)cn3)n2)cc1C(F)(F)F (stereo not drawn) , pest or weed control at 50 µg/cm2 reported as 50 to 100%

Entry `Cc1ccc(COCC(F)(F)F)c(N2C(=O)CS/C2=N\C(=O)Nc2ccc(-c3ccn(-c4ccc(C(F)(F)F)cn4)n3)cc2F)c1` , pest or weed control at 50 µg/cm2 reported as 50 to 100%

###

Tested on: Beet Armyworm (Spodoptera exigua) ("BAW"), second instar larvae
protocol_description: Bioassay on beet armyworm (BAW), 128-well diet tray assay
Format: in vivo
cond: Beet Armyworm (Spodoptera exigua); C = Not Tested

compound | test_system | BAW (Biological Results, rating)
CC(C)c1cc(F)c(N(C)C)cc1N1C(=O)CS/C1=N\C(=O)Nc1ccc(-c2ncn(-c3ccc(C(F)F)cn3)n2)cc1F [Compound J351] | Beet Armyworm (Spodoptera exigua) ("BAW"), second instar larvae | A (50-100)
Cc1ccc(COCC(F)(F)F)c(N2C(=O)CS/C2=N\C(=O)Nc2ccc(-c3ncn(-c4ccc(C(F)F)cn4)n3)cc2F)c1 [Compound J346] | Beet Armyworm (Spodoptera exigua) ("BAW"), second instar larvae | A (50-100)
COCc1ccc(C)cc1N1C(=O)CS/C1=N\C(=O)Nc1ccc(-c2ncn(-c3ccc(C(F)F)cn3)n2)cc1F [Compound J345] | Beet Armyworm (Spodoptera exigua) ("BAW"), second instar larvae | A (50-100)
CC(C)c1ccc(N(C)C)cc1N1C(=O)CS/C1=N\C(=O)Nc1ccc(-c2ncn(-c3ccc(C(F)(F)F)cn3)n2)cc1 [Compound J339] | Beet Armyworm (Spodoptera exigua) ("BAW"), second instar larvae | A (50-100)
